Numbers sourced from PubChem BioAssay (NCI).

Give measured growth inhibition for each item. Keep answers brief.
assay_text: NCI Yeast Anticancer Drug Screen. Data for the sgs1 mgt1 strain (AID 161);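 further: 0% = growth of cultures given vehicle only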
run_parameters: S. cerevisiae sgs1 mgt1 strain, at 50.0 µM (retest, dose inferred, filed as 5.0), stronger effect = higher value
This is part of a sample that, as a whole, favours compounds with a hit. Of some 79,000 tested, about 15% had one in any assay. Active and inactive are the calls of the source. No stated cut-off is given here; in the data, active means growth inhibition above about 70%; inactive means the rest.

Challenge: Give the reported value of growth inhibition for this record: COC(=O)CC1(C(=O)O)CC2(Cl)C(Cl)=C(Cl)C1(Cl)C2(Cl)Cl (stereo unspecified)
Response given: 49% (inactive)

Challenge: Give the reported value of growth inhibition for this record: "CCCCCCCCCCCCN1CC1"
Response given: 47% (inactive)

Challenge: Give the reported value of growth inhibition for this record: "[Br][Hg][CH2]COC[CH2][Hg][Br]"
Response given: 51% (inactive)

Challenge: Give the reported value of growth inhibition for this record: "Cc1cc(N(CCCl)CCCl)ccc1C=Nc1ccc(-c2csc(COc3ccccc3)n2)c(Cl)c1"
Response given: 95% (active)

Challenge: Give the reported value of growth inhibition for this record: "CC(=O)O/C(=C1\C[C@H]2[C@@H]3CC=C4C[C@@H](OC(C)=O)CC[C@]4(C)[C@H]3CC[C@]2(C)C1=O)C(F)(F)F"
Response given: 18% (inactive)

Challenge: Give the reported value of growth inhibition for this record: "O=[N+]([O-])c1cc([As](Br)c2ccc(O)c([N+](=O)[O-])c2)ccc1O"
Response given: 99% (active)
